# METHOD: in vitro
# SETTINGS: African green monkey, TC50, host cell Vero, Dengue Virus 2 table
I'd appreciate it if you could supply CC50 values for the items below.
Give the value in µM but do not write µM after it.

Requested field: CC50. Item: `CN(/N=C/c1ccc(C(F)(F)F)cc1C(=O)O)c1nc(-c2ccccc2Cl)cs1`
19

Requested field: CC50. Item: `Cc1sc(N/N=C/c2ccccc2C(=O)O)nc1-c1ccccc1`
23

Requested field: CC50. Item: `CN(/N=C/c1ccccc1C(=O)O)c1nc(-c2ccccc2Cl)cs1`
16

Requested field: CC50. Item: `O=C(O)c1cc(C(F)(F)F)ccc1/C=N/Nc1nc(-c2ccccc2Cl)cs1`
65

###

I'd appreciate it if you could supply pIC50 values for the items below.
# Tested on: H3N2 (influenza virus)
# METHOD: microbe, parasite or virus in culture
# SETTINGS: Influenza A virus, H3N2, MDCK, H3N2 in host cell MDCK, CPE
Please express pIC50 as -log10 of the molar concentration.

H3N2 (influenza virus) / pIC50 / Cc1ccc(/C=N/N(C)c2nc(-c3ccccc3)c(C)s2)c(C(=O)O)c1 [Compound 11] : value?
4.07

H3N2 (influenza virus) / pIC50 / O=C(O)c1ccccc1/C=N/Nc1nc(-c2ccc(-c3ccccc3)cc2)cs1 [Compound 57] : value?
2.35

H3N2 (influenza virus) / pIC50 / CCc1sc(N/N=C/c2ccccc2C(=O)O)nc1-c1ccccc1Cl [Compound 14] : value?
3.26

H3N2 (influenza virus) / pIC50 / CCCN(/N=C/c1ccccc1C(=O)O)c1nc(-c2ccccc2Cl)cs1 [Compound 3] : value?
4.60

H3N2 (influenza virus) / pIC50 / CN(/N=C/c1cc(O)c(F)cc1C(=O)O)c1nc(-c2ccccc2Cl)cs1 [Compound 24] : value?
3.82

###

# Test system: JEV (Japanese encephalitis virus)
# METHOD: Inhibition of viral replication (CPE) at cellular level, JEV in Vero
# SETTINGS: Japanese encephalitis virus, Vero
pIC50: −log10 of the molar value.
Could you label it true if measured pIC50 is 7 or higher, and false otherwise?

Determine whether measured pIC50 meets or exceeds 7 for `Cc1sc(N/N=C/c2ccccc2C(=O)O)nc1-c1ccccc1`
false

Determine whether measured pIC50 meets or exceeds 7 for `Cc1ccc(/C=N/Nc2nc(-c3ccccc3Cl)cs2)c(C(=O)O)c1`
false

Determine whether measured pIC50 meets or exceeds 7 for `O=C(O)c1ccccc1/C=N/Nc1nc(-c2ccccc2Cl)cs1`
false

Determine whether measured pIC50 meets or exceeds 7 for `CN(/N=C/c1ccc(F)cc1C(=O)O)c1nc(-c2ccccc2Cl)cs1`
true

###

# Test system: RSV (human respiratory syncytial virus)
# METHOD: Inhibition of viral replication (CPE) at cellular level, RSV in Vero
# SETTINGS: RSV in host cell Vero
PARAMETER: SI (TC50/IC50)
Reply with the value as a number alone.

RSV (human respiratory syncytial virus) / SI (TC50/IC50) / Cc1ccc(/C=N/Nc2nc(-c3ccccc3Cl)cs2)c(C(=O)O)c1 [Compound 9-1] : value?
40

RSV (human respiratory syncytial virus) / SI (TC50/IC50) / O=C(O)c1cc(F)ccc1/C=N/Nc1nc(-c2ccccc2Cl)cs1 [Compound 10-1] : value?
6.8

RSV (human respiratory syncytial virus) / SI (TC50/IC50) / O=C(O)c1ccccc1/C=N/Nc1nc(-c2ccccc2Cl)cs1 [Compound 16] : value?
4

RSV (human respiratory syncytial virus) / SI (TC50/IC50) / CN(/N=C/c1ccc(F)cc1C(=O)O)c1nc(-c2ccccc2Cl)cs1 [Compound 10] : value?
3.6
